Source of measurements: paper PMC11472388

# Experiment: In vivo microdialysis and plasma pharmacokinetics (BBB penetration)
# Design: species or system Sprague-Dawley rats
# Details: rat, 10 mg/kg i.v., plasma; 10 mg/kg
Property Name: Cmax

Molecule | Readout Value
NC(=O)CNC(=O)[C@@H]1CCC(=O)NCCCC[C@@H](NC(=O)[C@@H](N)Cc2ccc(O)cc2)C(=O)N[C@@H](Cc2c[nH]c3ccccc23)C(=O)N[C@@H](Cc2ccccc2)C(=O)N1 [ZH853] | 17 µM

----------
# Experiment: In vivo microdialysis and plasma pharmacokinetics (BBB penetration)
# Set-up: species or system Sprague-Dawley rats
# Details: male, Sprague-Dawley, rat, plasma, iv, 10 mg/kg, 10 mg/kg i.v.
Quick reference for Cmax among some molecules

Mol | Unit Of Measurement | Cmax
NC(=O)CNC(=O)[C@@H]1CCC(=O)NCCCC[C@@H](NC(=O)[C@@H](N)Cc2ccc(O)cc2)C(=O)N[C@@H](Cc2c[nH]c3ccccc23)C(=O)N[C@@H](Cc2ccccc2)C(=O)N1 | µM | 16.5
NC(=O)[C@H](CO[C@@H]1O[C@H](CO)[C@@H](O)[C@H](O)[C@H]1O)NC(=O)[C@@H]1CCC(=O)NCCCC[C@@H](NC(=O)[C@@H](N)Cc2ccc(O)cc2)C(=O)N[C@@H](Cc2c[nH]c3ccccc23)C(=O)N[C@@H](Cc2ccccc2)C(=O)N1 | µM | 15.7
